Source: patent US20200024322A1

Measured Ki accompanies every entry in the list below.
Biological target: T1, human GIP receptor (human, UniProt P48546 22-466)
T1 construct: whole, on cells; also called hGIPR; hGIP-R
T1 sequence (looked up): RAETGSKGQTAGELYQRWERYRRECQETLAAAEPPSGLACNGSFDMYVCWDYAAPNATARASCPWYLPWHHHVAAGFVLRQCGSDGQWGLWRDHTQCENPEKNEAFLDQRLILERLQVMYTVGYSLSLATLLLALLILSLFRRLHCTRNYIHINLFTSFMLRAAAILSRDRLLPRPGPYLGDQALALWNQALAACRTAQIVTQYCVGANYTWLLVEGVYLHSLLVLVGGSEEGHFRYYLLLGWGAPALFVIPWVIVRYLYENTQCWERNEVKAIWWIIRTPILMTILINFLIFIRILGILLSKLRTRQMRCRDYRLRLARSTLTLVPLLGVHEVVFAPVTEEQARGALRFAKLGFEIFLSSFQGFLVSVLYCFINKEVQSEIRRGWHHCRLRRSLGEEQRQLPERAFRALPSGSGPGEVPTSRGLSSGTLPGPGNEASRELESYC
Assay: [125I]-GIP competition SPA, hGIPR membranes
Form entry: value (pM) — number only.

BINDER	METRIC	MEAS_VALUE
YXEGTFTSDYSIXLDEKAQXAFIEYLIAGGPSSGAPPPS (Aib2; αMeL13; K17((2-[2-(2-Amino-ethoxy)-ethoxy]-acetyl)2-(γ-Glu)-CO-(CH2)18-CO2H); Aib20; C-terminal NH2) [Example 332]	Ki	49.7

Q: Return Ki (reported value) for this binder: YXEGTXTSDYSILLDEKAQXAFIEYLIEGGPSSG (Aib2; αMeF(2F)6; K17((2-[2-(2-Amino-ethoxy)-ethoxy]-acetyl)2-(γ-Glu)-CO-(CH2)16-CO2H); Aib20; C-terminal NH2) [Example 311]
Result: 49.7

Q: Return value of Ki for input YXEGTXTSDXSIXLDXKAQXAFIXXLIEGGPSSGAPPPS (Aib2; αMeF(2F)6; 4Pal10; αMeL13; Orn16; K17((2-[2-(2-Amino-ethoxy)-ethoxy]-acetyl)2-(εK)-CO-(CH2)18-CO2H); Aib20; D-Glu24; αMeY25; C-terminal NH2) [Example 251] , no commentary.
Result: 24.9

Q: Provide Ki value for the following binder: YXEGTFTSDYSILLDKKAQQAFIEYLIEGGPSSGAPPPS (Aib2; K17((2-[2-(2-Amino-ethoxy)-ethoxy]-acetyl)2-(γ-Glu)-CO-(CH2)18-CO2H); C-terminal NH2) [Example 254]
Result: 108
